ASSAYED TARGET: Serine/threonine-protein kinase D1 (Homo sapiens);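 note: values given as mean inhibition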
RUN PARAMETERS: at 0.1 µM

{"columns": ["SMILES TEXT", "inhibition (%)"],
 "data": [
  ["COc1cc2ncnc(Nc3ccc4c(cnn4Cc4ccccc4)c3)c2cc1OC", 2.89],
  ["CN(C)C(=O)O[C@H]1CN[C@H](C#Cc2cc3ncnc(Nc4ccc(OCc5cccc(F)c5)c(Cl)c4)c3s2)C1", 2.38],
  ["COC(=O)c1cncc(/C=C/c2c(C)cc(O)cc2C)c1", 3.37],
  ["CN(C)C(=O)O[C@@H]1CN[C@@H](C#Cc2cc3ncnc(Nc4ccc(OCc5cccc(F)c5)c(Cl)c4)c3s2)C1", 0.32],
  ["CCOc1nccc2c1nc(-c1nonc1N)n2CC", 3.37],
  ["NS(=O)(=O)c1cccc(-c2cc3ccncc3cc2OCc2ccccc2)c1", 4.25],
  ["CCn1c(-c2nonc2N)nc2ccc(F)cc21", 4.58],
  ["Cc1ccc(NC(=O)CC2CC2)cc1-c1ccc(C(=O)NCC2CC2)cc1", 2.3],
  ["NS(=O)(=O)c1ccc(NC=C2C(=O)Nc3ccc4ncsc4c32)cc1", 28.5],
  ["CCS(=O)(=O)c1ccc(OC)c(Nc2ncc(-c3cccc(OC)c3)o2)c1", 2.32],
  ["COC(=O)c1ccc2c(c1)C(=Cc1cc(Br)c(O)c(Br)c1)C(=O)N2", 5.07]
]}

###

Items are presented alongside their recorded inhibition.
ASSAYED TARGET: Protein kinase C theta type (Homo sapiens) (UniProt Q04759);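 note: reported figure is the mean percent inhibition of PKC-theta, from the GSK PKIS screen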
Sequence (Q04759 whole entry, looked up): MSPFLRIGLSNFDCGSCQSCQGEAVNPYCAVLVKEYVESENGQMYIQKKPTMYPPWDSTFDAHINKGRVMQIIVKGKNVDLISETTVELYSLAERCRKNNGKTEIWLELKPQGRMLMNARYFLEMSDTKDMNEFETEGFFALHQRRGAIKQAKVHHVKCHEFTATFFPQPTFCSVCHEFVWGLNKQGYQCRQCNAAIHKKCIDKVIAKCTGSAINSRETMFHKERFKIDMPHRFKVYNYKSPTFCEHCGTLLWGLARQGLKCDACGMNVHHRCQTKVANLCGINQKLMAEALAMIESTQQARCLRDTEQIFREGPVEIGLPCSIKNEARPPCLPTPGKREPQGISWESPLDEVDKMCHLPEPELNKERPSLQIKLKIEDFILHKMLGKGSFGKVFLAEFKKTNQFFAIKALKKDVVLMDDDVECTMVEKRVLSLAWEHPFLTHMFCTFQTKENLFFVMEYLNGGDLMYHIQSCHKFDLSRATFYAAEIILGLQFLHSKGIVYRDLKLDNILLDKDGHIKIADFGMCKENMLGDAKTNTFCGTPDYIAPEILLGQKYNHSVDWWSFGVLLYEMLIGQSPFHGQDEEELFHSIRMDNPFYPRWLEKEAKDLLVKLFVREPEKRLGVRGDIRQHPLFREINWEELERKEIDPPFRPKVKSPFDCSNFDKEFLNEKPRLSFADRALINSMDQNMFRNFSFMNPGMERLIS
RUN PARAMETERS: at 0.1 µM

{"columns": ["SMILES TEXT", "MEASUREMENT UNIT", "inhibition"],
 "data": [
  ["Cc1ccc2c(c1)/C(=N/Nc1ccc(S(N)(=O)=O)cc1)C(=O)N2", "%", -0.6],
  ["CN1CCN(C(=O)c2ccc(NC(=O)Nc3ccc(N(C)c4ccnc(Nc5ccc(CS(C)(=O)=O)cc5)n4)cc3)cc2)CC1", "%", 1.17],
  ["Cc1cc(-c2ccccn2)cc(C)c1/C=C/c1cncc(-c2nn[nH]n2)c1", "%", 1.86],
  ["O=C(Nc1ccc(Oc2ccc3[nH]c(NC(=O)c4ccco4)nc3c2)cc1)Nc1cc(C(F)(F)F)ccc1F", "%", -0.73],
  ["Cc1ccc(O)cc1Nc1ccnc2ccc(S(C)(=O)=O)cc12", "%", 3.39],
  ["COc1cccc(-n2ncc3c(N/N=C/c4ccc(C)cc4)ncnc32)c1", "%", 3.03],
  ["CN(C)CCCn1c(-c2nonc2N)nc2cnccc21", "%", 2.2],
  ["Cc1ccc2c(-c3ccnc(Nc4cccc(C(F)(F)F)c4)n3)c(-c3ccccc3)nn2n1", "%", 2.13],
  ["N#Cc1c(NC(=O)c2ccccc2F)sc2c1CCCC2", "%", -0.76],
  ["CN(c1ccc(NC(=O)Nc2ccc(OC(F)(F)F)cc2)cc1)c1ccnc(Nc2cccc(S(N)(=O)=O)c2)n1", "%", 0.61]
]}

###

ASSAYED TARGET: Serine/threonine-protein kinase Nek6 (Homo sapiens) (UniProt Q9HC98);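 note: values are the mean percent inhibition of NEK6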
Sequence (Q9HC98 whole entry): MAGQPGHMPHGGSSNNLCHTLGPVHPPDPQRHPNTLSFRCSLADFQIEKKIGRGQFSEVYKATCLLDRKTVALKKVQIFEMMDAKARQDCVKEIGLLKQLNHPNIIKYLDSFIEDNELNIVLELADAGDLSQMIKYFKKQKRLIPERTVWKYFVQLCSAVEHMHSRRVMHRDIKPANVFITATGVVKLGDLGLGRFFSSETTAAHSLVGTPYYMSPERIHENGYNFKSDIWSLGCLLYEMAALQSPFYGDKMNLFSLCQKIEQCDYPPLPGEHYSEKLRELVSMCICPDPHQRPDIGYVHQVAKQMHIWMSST
RUN PARAMETERS: at 0.1 µM
Parameter inhibition: see the listing below.
REPORTED METRIC: inhibition (%)

{"columns": ["SMILES TEXT", "MEASUREMENT UNIT", "RECORDED RESULT"],
 "data": [
  ["N#Cc1cccc(Nc2nccc(-c3cnn4ncccc34)n2)c1", "%", 3.54],
  ["NS(=O)(=O)c1ccc(-c2cc3ccncc3cc2OCc2ccccc2)cc1", "%", 3.18],
  ["CCS(=O)(=O)c1ccc(OC)c(Nc2ncc(-c3cccc(OC)c3)o2)c1", "%", -1.47],
  ["CS(=O)(=O)CCNCc1nc(-c2ccc3ncnc(Nc4ccc(OCc5cccc(C(F)(F)F)c5)cc4)c3c2)cs1", "%", -0.59],
  ["COc1ccc(-c2nn3ncccc3c2-c2ccnc(Nc3cccc(C(F)(F)F)c3)n2)cc1", "%", -1.61]
]}

###

ASSAYED TARGET: NT-3 growth factor receptor (Homo sapiens) (UniProt Q16288);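 note: mean TRKC inhibition from the GSK PKIS kinase inhibitor set, with assays run by Nanosyn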
Sequence (Q16288 32-839 limits assumed): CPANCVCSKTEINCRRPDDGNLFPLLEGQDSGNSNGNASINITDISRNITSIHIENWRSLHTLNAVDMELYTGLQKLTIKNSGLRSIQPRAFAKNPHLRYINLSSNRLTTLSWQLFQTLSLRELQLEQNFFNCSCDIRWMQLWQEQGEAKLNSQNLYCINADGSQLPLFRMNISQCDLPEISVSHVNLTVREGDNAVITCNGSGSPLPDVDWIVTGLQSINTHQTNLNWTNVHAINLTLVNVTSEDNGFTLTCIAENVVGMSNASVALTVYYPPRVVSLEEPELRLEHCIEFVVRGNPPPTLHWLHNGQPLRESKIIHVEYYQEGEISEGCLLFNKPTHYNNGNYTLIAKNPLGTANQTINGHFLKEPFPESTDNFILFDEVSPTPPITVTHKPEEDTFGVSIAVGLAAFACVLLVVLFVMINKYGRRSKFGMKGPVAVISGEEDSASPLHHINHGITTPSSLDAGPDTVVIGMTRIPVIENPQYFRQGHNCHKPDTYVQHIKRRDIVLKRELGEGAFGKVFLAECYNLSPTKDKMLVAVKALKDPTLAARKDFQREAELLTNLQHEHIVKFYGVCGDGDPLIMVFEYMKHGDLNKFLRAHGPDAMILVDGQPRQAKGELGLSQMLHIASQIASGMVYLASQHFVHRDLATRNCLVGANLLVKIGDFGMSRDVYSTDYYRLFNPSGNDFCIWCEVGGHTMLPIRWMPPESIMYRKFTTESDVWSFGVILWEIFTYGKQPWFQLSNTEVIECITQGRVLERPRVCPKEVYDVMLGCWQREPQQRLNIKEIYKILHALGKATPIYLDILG
RUN PARAMETERS: at 1 µM
Here the recorded inhibition is given for each entry.

{"columns": ["SMILES TEXT", "MEASUREMENT UNIT", "inhibition"],
 "data": [
  ["CN(c1ccc(NC(=O)Nc2ccc(OC(F)(F)F)cc2)cc1)c1ccnc(Nc2cccc(S(N)(=O)=O)c2)n1", "%", 87.1],
  ["Oc1cccc(-c2nc(-c3ccccc3)[nH]c2-c2ccncc2)c1", "%", 7.3],
  ["Cc1ccc(O)cc1Nc1ccnc2ccc(S(C)(=O)=O)cc12", "%", 7.31],
  ["CN(C)C(=O)O[C@@H]1CN[C@@H](C#Cc2cc3ncnc(Nc4ccc(OCc5cccc(F)c5)c(Cl)c4)c3s2)C1", "%", 0.46],
  ["Cc1ccc2c(c1)/C(=N/Nc1ccc(S(N)(=O)=O)cc1)C(=O)N2", "%", 39.2]
]}

###

Listed molecules paired with reported inhibition
ASSAYED TARGET: cAMP-dependent protein kinase catalytic subunit alpha (Homo sapiens);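 note: reported value is the mean percent inhibition of PKA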
RUN PARAMETERS: at 0.1 µM
REPORTED METRIC: inhibition (%)

{"columns": ["SMILES TEXT", "REPORTED METRIC", "MEASUREMENT UNIT", "RECORDED RESULT"],
 "data": [
  ["FC(F)(F)c1ccc(-c2nn3ncccc3c2-c2ccnc(Nc3ccc4c(c3)OCCO4)n2)cc1", "inhibition", "%", 6.1],
  ["CN(C)C(=O)O[C@@H]1CN[C@@H](C#Cc2cc3ncnc(Nc4ccc(OCc5cccc(F)c5)c(Cl)c4)c3s2)C1", "inhibition", "%", 0.67],
  ["COC(=O)Nc1nc2cc(Oc3ccc(NC(=O)Nc4cccc(Br)c4)cc3)ccc2[nH]1", "inhibition", "%", 1.25],
  ["C[C@@H](Oc1cc(-n2cnc3ccc(OCC4CCN(C)CC4)cc32)sc1C(N)=O)c1ccccc1C(F)(F)F", "inhibition", "%", -0.41],
  ["Cc1ccc(NC(=O)CC2CC2)cc1-c1ccc(C(=O)NCC2CC2)cc1", "inhibition", "%", 1.31],
  ["ON=C1CCc2cc(-c3nc(C4CCNCC4)[nH]c3-c3ccncc3)ccc21", "inhibition", "%", 1.54],
  ["COc1cccc(-n2ncc3c(N/N=C/c4ccc(C)cc4)ncnc32)c1", "inhibition", "%", 3.22],
  ["Nc1nccc(C#Cc2cncnc2Nc2ccc(OCc3cccc(F)c3)c(Cl)c2)n1", "inhibition", "%", 1.49],
  ["CCS(=O)(=O)c1ccc(OC)c(Nc2nccc(N(C)c3ccc4c(C)n[nH]c4c3)n2)c1", "inhibition", "%", 2.41]
]}

###

Recorded inhibition, one value per entry.
ASSAYED TARGET: Casein kinase I isoform gamma-2 (Homo sapiens)
RUN PARAMETERS: at 1 µM
Description: GSK_PKIS: CK1-g2 mean inhibition at 1 uM [Nanosyn]
REPORTED METRIC: inhibition (%)

{"columns": ["SMILES TEXT", "ASSAYED TARGET", "MEASUREMENT UNIT", "RECORDED RESULT"],
 "data": [
  ["COc1ccc2ncnc(Nc3ccc(OCc4ccccc4)cc3)c2c1", "Casein kinase I isoform gamma-2 (Homo sapiens)", "%", 2.03],
  ["COc1cc2ncn(-c3cc(OCc4ccccc4S(C)(=O)=O)c(C#N)s3)c2cc1OC", "Casein kinase I isoform gamma-2 (Homo sapiens)", "%", 3.78],
  ["[O-][S+]1CCN(Cc2ccc(-c3ccc4ncnc(Nc5ccc(OCc6ccccc6)c(Cl)c5)c4c3)o2)CC1", "Casein kinase I isoform gamma-2 (Homo sapiens)", "%", 1.66],
  ["COc1cc2ncnc(Nc3ccc4c(cnn4Cc4ccccc4)c3)c2cc1OC", "Casein kinase I isoform gamma-2 (Homo sapiens)", "%", 2.98],
  ["CN(C)c1cc2c(Nc3ccc4c(cnn4Cc4ccccc4)c3)ncnc2cn1", "Casein kinase I isoform gamma-2 (Homo sapiens)", "%", 2.69],
  ["Cc1ccc2c(c1)/C(=N/Nc1ccc(S(N)(=O)=O)cc1)C(=O)N2", "Casein kinase I isoform gamma-2 (Homo sapiens)", "%", 0.86],
  ["O=C1Nc2ccc(-c3cccnc3)cc2C1=Cc1cc(Br)c(O)c(Br)c1", "Casein kinase I isoform gamma-2 (Homo sapiens)", "%", 4.44],
  ["NS(=O)(=O)c1ccc(N/N=C2\\C(=O)Nc3ccc(Cl)cc32)cc1", "Casein kinase I isoform gamma-2 (Homo sapiens)", "%", 3.33],
  ["CN(C)C(=O)O[C@H]1CN[C@H](C#Cc2cc3ncnc(Nc4ccc(OCc5cccc(F)c5)c(Cl)c4)c3s2)C1", "Casein kinase I isoform gamma-2 (Homo sapiens)", "%", 1.66],
  ["CCS(=O)(=O)c1ccc(OC)c(Nc2nccc(N(C)c3ccc4c(C)n[nH]c4c3)n2)c1", "Casein kinase I isoform gamma-2 (Homo sapiens)", "%", 4.44],
  ["COc1cc(Nc2nccc(-c3cnn4ncccc34)n2)cc(OC)c1", "Casein kinase I isoform gamma-2 (Homo sapiens)", "%", 39.3],
  ["C[C@@H](Oc1cc(-n2cnc3ccc(OC[C@@H](O)CO)cc32)sc1C(N)=O)c1ccccc1Cl", "Casein kinase I isoform gamma-2 (Homo sapiens)", "%", -0.43],
  ["COc1cc(/C=N/Nc2ncnc3c2cnn3C(C)C)ccc1O", "Casein kinase I isoform gamma-2 (Homo sapiens)", "%", 0.8],
  ["C[C@@H](Oc1cc(-n2cnc3ccc(OCC4CCN(C)CC4)cc32)sc1C(N)=O)c1ccccc1C(F)(F)F", "Casein kinase I isoform gamma-2 (Homo sapiens)", "%", -3.37],
  ["NS(=O)(=O)c1ccc(-c2cc3ccncc3cc2OCc2ccccc2)cc1", "Casein kinase I isoform gamma-2 (Homo sapiens)", "%", 3.43],
  ["N#Cc1c(NC(=O)c2ccccc2F)sc2c1CCCC2", "Casein kinase I isoform gamma-2 (Homo sapiens)", "%", -1.07],
  ["FC(F)(F)c1ccc(-c2nn3ncccc3c2-c2ccnc(Nc3ccc4c(c3)OCCO4)n2)cc1", "Casein kinase I isoform gamma-2 (Homo sapiens)", "%", 0.81],
  ["c1ccc(Cc2nc3ccc(Nc4ncnc5ccccc45)cc3[nH]2)cc1", "Casein kinase I isoform gamma-2 (Homo sapiens)", "%", 8.66],
  ["CCn1c(-c2nonc2N)nc2c(C#CC(C)(C)O)nc(OCCNC)cc21", "Casein kinase I isoform gamma-2 (Homo sapiens)", "%", 6.19],
  ["OCc1ccc(-c2nc(-c3ccccn3)c(-c3ccc4c(c3)OCO4)[nH]2)cc1", "Casein kinase I isoform gamma-2 (Homo sapiens)", "%", 4.06]
]}
